Below: a set of entries, each annotated with reported apparent KD of K4 kissing-loop reporter.
system: K4 kissing-loop RNA reporter; assay: apparent KD of K4 kissing-loop reporter; higher = weaker reporter binding; conditions: Eterna round: R107; input ligand: tryptophan 2.4 mM;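 also: bound reporter read as fluorescence of individual clusters on recovered sequencing chips by microscopy, with normalized cluster intensities fitted with a binding model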

chainSequence	tgt	apparent KD of K4 kissing-loop reporter / nM
GCGGGCGGCUGAAGGAGCGGGCGGGCCCGAGUGAUGUUCGGGUGGGCUGUGAGGCCCGGAGCCCAGGUAGGUCGCGGUUCCGCCC [#2 Same State - Arginine B Attempt #26 (HarryS)]	K4 kissing-loop RNA reporter	133
UGACUGGACUGAAGGAGCGAGCGAGACAAAGUCUCGGAAAUUCAGUGAUGUUGAUAUAUAACUCAGGUAGGUCGCAGUCUAGUCU [ArgBS 6 #SwitchBubble #StaticStem]	K4 kissing-loop RNA reporter	335
GGAUAGGACAGAGGAUAUGGACAGUCUACAAAGUAGGCUGAAUAAAUCCUUGAAUGGAGUGAUGUUCCAGAAGGCUGUCCUAUCG [FmnBX 22 #SwitchBubble #StaticStem #Palindromic]	K4 kissing-loop RNA reporter	426
AUCGAUAUCAGAGGAUAUGCUUAAUAGAUUUAUUAUUAUCUAUUAUGCAGUGAUGUUGCAUAUUUUGCAGAAGGCUGAUUUCGAA [JR_SSFMNB_Sub019]	K4 kissing-loop RNA reporter	403
AGGUGAGACUGAAGGAGCGAUCGCGCCAGUGAUGUUGGUGAGCAUGACAAAGUCAUGCACGAUCAGGUAGGUCGCAGUCUUACUC [Omei KL Arginine B SS B v2]	K4 kissing-loop RNA reporter	185
AAGGCAGUUCGAGGAUAUCACAUACACUCCUUGAAUCAAGGAGUGAUGUUCCUUGAAGUGUAUGCAUGAGAAGGCGAAUUGCCUU [FMN B SS t5]	K4 kissing-loop RNA reporter	101
AGCUCAGAGUGACUCGAUAAGAGUCACAAACGAGGACCGGUACGGCCGCCACUCGAAAUAAUGGGAGUGAUGUUCUCACUGAGCA [#SwitchBubble 3 #StaticStem #K4Late]	K4 kissing-loop RNA reporter	384
AUUUUUUUGUCAGGAUAUUAGUGUUGGUUUGGUUUGUUAGUGAUGUUGAUAUUUGUUUUAUGUAUUUAAGAAGGGAUUUAGCGGU [wxooemullin]	K4 kissing-loop RNA reporter	293
UGGAUAUAGUGAUGUUAUAUAGAGAUGGAUACCAGUUGAGAGAAUAGCCCUUGGCAGCCGAAAGAAGUAUCAUUAGAGAAGAAUG [ExTheophyl.Ak]	K4 kissing-loop RNA reporter	173
AGGCACGAGCAAGGAUAUCGAGUAGAGUGAUGUUCUGCCUGGGUUGGCUCGCAAGAGCCUUCUCAGCGAGAAGGUGCUCGUGCCU [#2 Same State - FMN A Attempt #18 (HarryS)]	K4 kissing-loop RNA reporter	640
GGUGCGGGCUCGGCCGCCACUCCCUCCUGCCGUAAGGUGGGAUACCGAGUGAUGUUCGGUUGGAGGAGGACCGGGAGCCCGUGCC [#2 Exclusion - Tryptophan B Attempt #16 (HarryS)]	K4 kissing-loop RNA reporter	125
UGGACCAAGGAGUGAUGUUCCAUAUGUGAUACCAGCCACGAAAGUGGCCCUUGGCAGCACUGCCAGGACGAAAACGUCCGGUCCU [#SwitchBubble 13 #StaticStem #K4Early]	K4 kissing-loop RNA reporter	321
GCGGGCGGCUGAAGGAGCGGGCGGGCCCGAGUGAUGUUCGGGUGGGCCGUGAGGCCCGGAGCCCAGGUAGGUCGCGGUUCCGUCC [#2 Same State - Arginine B Attempt #19 (HarryS)]	K4 kissing-loop RNA reporter	147
AAGAGGUAGGCGGCCGCCACUAGUUGUGAACACAUACGAGCCAGUGAUGUUGGUAUUGUGGGCGGUAGGACCGGGCCUACCUGAA [Exclusion - Tryptophan B (Freestyle 19)]	K4 kissing-loop RNA reporter	281
